Assay: Human HepG2 cell viability assay in 384 well format
Format: toxicity, cell-based
Design: dose 125 nL, time 70.5 hour; concentration not given beside the values
Conditions: HepG2 cells, read-out: Inhibition
measurement-name: cytotoxicity at 70.5 h (%)
Use % as the unit, but write only the number.

Example results:
molecule	cytotoxicity at 70.5 h, %
COC(=O)c1ccc(C)c(N2CCNC2=O)c1	-2.21
Cc1cc(F)cc(CN2CCCn3nc(CNS(C)(=O)=O)cc3C2)c1	0.898
C=C(C)CN1CCN(Cc2cnc(-c3ccc(OC)cc3)nc2)CC1	9.18
Cc1cnn(CC2CCCN2C(=O)c2cc(C)nc3[nH]nc(C)c23)c1 (stereo unspecified)	-3.88
O=C1CCC2(CCCN(C(=O)c3cccs3)C2)N1 (stereo unspecified)	35.1

Consider the additional molecule presented here.
// query Answer with the recorded cytotoxicity at 70.5 h for the molecule listed here: "O=S(=O)(C1CC1)N1C[C@H]2CCC[C@@]2(COc2ccccn2)C1"
// result -19.4

###

Assay: Human HepG2 cell viability assay in 384 well format
Assay type: toxicity, cell-based
Set-up: dose 125 nL, time 70.5 hour; concentration not given beside the values
Details: HepG2 cells, read-out: Inhibition
In this section we review reported cytotoxicity at 70.5 h values for a set of molecules.
Use % as the unit, but write only the number.

molecule	cytotoxicity at 70.5 h [%]
Cc1ccc(N2C[C@H](C)[C@]3(CCN(c4cccnc4)C3=O)C2)nn1	-3.28
Cc1nc(CC(=O)N2CCCC2c2nc(C(C)C)no2)cs1 (centres undefined)	-6.42
Cc1cnn(C2CCCN(C(=O)c3cnc4ccccc4n3)C2)c1 (centres undefined)	-7.22
CC(NC(=O)NCc1ccc(Cl)s1)c1ccccn1 (centres undefined)	-20
Cn1cc(CN2CCCN(C(=O)c3ccc4c(c3)COC4)CC2)cn1	-4.36
Cc1c(C(C)NC(=O)Nc2ccc(F)cc2F)cnn1C (centres undefined)	-3.54

// query Answer with the recorded cytotoxicity at 70.5 h for the molecule listed here: "Cc1nnc([C@@H]2C[C@H]3CN(C4CCC4)C[C@H]3O2)[nH]1"
// result -0.989

// query Answer with the recorded cytotoxicity at 70.5 h for the molecule listed here: "CNC(=O)[C@H]1CC[C@@H]2[C@@H](CCN2CCOCc2ccccc2)O1"
// result -12.3

// query Answer with the recorded cytotoxicity at 70.5 h for the molecule listed here: "O=C(CCO)N1CCC2(CCc3ccc(-c4ccoc4)cc32)CC1"
// result -12.5

###

In this section we review reported cytotoxicity at 70.5 h values for a set of compounds.
Test: Human HepG2 cell viability assay in 384 well format
Type: toxicity, cell-based
Design: dose 125 nL, time 70.5 hour; concentration not given beside the values
Details: HepG2 cells, read-out: Inhibition
The answer consists of two parts: a number and, after it, its unit.

Example results:
compound	cytotoxicity at 70.5 h
Cn1cc(C(=O)N2CCO[C@@H]3CN(C4CCC4)C[C@@H]3C2)cn1	-3.32%
CS(=O)(=O)CCC(=O)N1C[C@@H]2CC[C@H](C1)N(Cc1ccccn1)C2=O	14.6%
CN(C)Cc1cnc(C2CCN(C(=O)c3ccc(F)cc3)C2)[nH]1 (stereo not given)	-6.91%
Cc1c(Cl)c(C(=O)NCc2ccc(F)cc2)nn1C	-5.73%
CCc1ncc2c(n1)CN(C(=O)CNC(=O)c1ccccc1)C2	25.5%
COc1cc(CNCc2ccc(NC(=O)NC(C)C)cc2)cc(OC)c1	2.03%
CC(CC(=O)NCCCn1cccn1)c1cccnc1 (stereo not given)	-6.56%
O=C(c1ccccn1)N1CCc2c(nc(N3CCCC3)[nH]c2=O)C1	-1.38%
CC(C)(C)c1coc([C@@H]2COCCN2Cc2c[nH]c3ccccc23)n1	1.59%

Consider the additional compound presented here.
// query Answer with the recorded cytotoxicity at 70.5 h for the compound listed here: "CC(=O)N1CCCN(CCCSc2ccccc2Cl)CC1"
// result -6.8%
